Target: Histone deacetylase 1 (Homo sapiens, UniProt Q13547)
Sequence (Q13547 whole entry): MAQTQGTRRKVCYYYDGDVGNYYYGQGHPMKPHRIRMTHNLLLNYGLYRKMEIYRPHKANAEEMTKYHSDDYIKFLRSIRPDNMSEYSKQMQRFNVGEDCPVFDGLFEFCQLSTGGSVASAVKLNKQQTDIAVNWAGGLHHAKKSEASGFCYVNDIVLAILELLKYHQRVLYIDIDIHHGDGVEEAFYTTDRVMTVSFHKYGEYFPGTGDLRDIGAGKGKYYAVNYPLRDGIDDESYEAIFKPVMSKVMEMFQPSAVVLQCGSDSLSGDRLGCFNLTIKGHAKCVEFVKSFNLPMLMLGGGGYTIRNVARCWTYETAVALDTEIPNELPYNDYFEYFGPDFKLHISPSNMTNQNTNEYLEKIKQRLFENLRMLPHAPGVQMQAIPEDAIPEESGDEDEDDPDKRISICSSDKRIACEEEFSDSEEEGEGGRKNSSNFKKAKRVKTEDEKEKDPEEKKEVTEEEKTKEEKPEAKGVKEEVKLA
pIC50: −log10 of the molar value.
Where pIC50 equals or exceeds 7, the correct label is 1; where it does not, the label is -1.

Asked: Threshold query (pIC50 >= 7) on `CN(C)CC(C)(C)Cn1c(CCc2ccccc2)nc2cc(/C=C/C(=O)NO)ccc21`
Given back: 1

Asked: Determine whether this molecule has pIC50 no lower than 7: `CC(C)Cc1nc2cc(CCC(=O)NO)ccc2n1CCCO`
Given back: -1

Asked: Form field: pIC50 at least 7? Entry: `Nc1ccccc1NC(=O)/C=C/c1ccc2c(c1)nc(CCc1ccccc1)n2Cc1ccccn1`
Given back: -1

* * *

Molecular target: UniProtKB Q9UQL6
Sequence (Q9UQL6 whole entry): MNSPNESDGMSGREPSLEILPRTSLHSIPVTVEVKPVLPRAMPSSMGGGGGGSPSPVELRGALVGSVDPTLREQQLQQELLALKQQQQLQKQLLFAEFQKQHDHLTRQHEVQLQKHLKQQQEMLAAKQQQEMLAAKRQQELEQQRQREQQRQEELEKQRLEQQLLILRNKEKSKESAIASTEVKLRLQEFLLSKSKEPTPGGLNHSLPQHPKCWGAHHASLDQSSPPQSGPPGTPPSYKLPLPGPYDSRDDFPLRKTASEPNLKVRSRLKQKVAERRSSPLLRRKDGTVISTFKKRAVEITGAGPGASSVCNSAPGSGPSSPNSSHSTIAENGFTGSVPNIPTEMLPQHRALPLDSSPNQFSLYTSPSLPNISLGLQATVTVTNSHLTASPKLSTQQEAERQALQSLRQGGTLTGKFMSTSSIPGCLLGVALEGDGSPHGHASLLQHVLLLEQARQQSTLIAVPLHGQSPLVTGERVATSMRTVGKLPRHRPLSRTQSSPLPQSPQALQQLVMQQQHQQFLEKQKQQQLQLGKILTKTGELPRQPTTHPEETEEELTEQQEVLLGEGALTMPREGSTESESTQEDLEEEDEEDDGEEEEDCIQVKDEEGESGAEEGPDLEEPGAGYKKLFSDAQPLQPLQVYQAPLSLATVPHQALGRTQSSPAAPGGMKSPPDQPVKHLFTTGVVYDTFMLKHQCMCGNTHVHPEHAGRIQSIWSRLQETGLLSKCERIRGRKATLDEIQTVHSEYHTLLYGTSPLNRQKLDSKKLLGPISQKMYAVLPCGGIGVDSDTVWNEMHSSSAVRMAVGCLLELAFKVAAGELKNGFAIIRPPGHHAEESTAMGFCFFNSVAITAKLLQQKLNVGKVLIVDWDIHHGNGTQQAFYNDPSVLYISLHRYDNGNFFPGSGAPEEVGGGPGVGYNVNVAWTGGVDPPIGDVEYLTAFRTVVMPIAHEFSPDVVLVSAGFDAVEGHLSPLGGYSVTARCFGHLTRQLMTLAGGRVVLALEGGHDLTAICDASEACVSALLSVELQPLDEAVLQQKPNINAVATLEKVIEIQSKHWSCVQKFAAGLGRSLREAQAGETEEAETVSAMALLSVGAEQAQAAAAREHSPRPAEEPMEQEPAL
Experiment: Inhibition of recombinant HDAC5 by fluorimetric assay
property_label: Ki (nM)
Write the value in nM as a bare number.

Asked: What Ki appears in the records for this compound with UniProtKB Q9UQL6? `O=C(/C=C/c1ccc2c(c1)nc(CCc1ccccc1)n2CCN1CCCC1)NO`
Given back: 17.2

* * *

Assay: Cmax in mouse at 50 mg/kg, po
Assay type: ADME, organism-based
Set-up: dose 50 mg/kg, route oral
Details: in vivo
property_label: Cmax (nM)
Return type: number; implicit unit nM.

Asked: Need Cmax of `O=C(/C=C/c1ccc2c(c1)nc(CCc1ccccc1)n2CCN1CCCC1)NO` , thanks.
Given back: 920

* * *

Target: Histone deacetylase 4 (Homo sapiens, UniProt P56524)
Sequence (P56524 whole entry): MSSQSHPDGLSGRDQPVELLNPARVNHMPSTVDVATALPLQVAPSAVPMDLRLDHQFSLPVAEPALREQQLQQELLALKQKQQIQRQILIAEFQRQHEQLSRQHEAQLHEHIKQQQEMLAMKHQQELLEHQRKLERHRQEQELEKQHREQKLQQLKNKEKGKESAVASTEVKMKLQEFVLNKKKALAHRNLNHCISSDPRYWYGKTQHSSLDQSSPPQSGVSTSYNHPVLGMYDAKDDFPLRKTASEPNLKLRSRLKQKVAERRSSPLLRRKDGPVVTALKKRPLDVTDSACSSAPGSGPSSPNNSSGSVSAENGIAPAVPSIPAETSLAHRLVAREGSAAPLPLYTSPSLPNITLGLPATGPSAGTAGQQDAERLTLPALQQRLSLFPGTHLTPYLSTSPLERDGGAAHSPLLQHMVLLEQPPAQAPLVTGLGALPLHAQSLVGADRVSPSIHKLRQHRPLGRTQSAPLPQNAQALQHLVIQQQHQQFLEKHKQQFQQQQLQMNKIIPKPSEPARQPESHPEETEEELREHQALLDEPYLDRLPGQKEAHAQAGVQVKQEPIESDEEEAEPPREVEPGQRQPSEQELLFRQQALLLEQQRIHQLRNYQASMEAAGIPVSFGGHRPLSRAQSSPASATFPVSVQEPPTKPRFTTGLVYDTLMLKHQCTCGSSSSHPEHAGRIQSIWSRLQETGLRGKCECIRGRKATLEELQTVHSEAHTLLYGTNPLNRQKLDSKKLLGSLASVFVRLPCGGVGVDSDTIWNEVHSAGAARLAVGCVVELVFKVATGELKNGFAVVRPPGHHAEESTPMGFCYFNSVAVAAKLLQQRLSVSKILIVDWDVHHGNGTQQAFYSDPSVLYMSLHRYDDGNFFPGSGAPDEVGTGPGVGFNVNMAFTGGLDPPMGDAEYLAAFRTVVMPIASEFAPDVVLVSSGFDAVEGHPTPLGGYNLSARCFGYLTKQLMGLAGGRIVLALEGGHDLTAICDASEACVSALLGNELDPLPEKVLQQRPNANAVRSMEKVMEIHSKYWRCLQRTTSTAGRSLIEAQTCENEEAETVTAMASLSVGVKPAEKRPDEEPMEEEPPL
Test: Inhibition of recombinant HDAC4 by fluorimetric assay
property_label: Ki (nM)
The reply should contain only the number, in nM.

Asked: // Ki lookup, key: `O=C(/C=C/c1ccc2c(c1)nc(CCc1ccccc1)n2CCN1CCCC1)NO`
Given back: 9.6

* * *

Test system: COLO 205
Experiment: Antiproliferative activity against human COLO205 cells after 96 hrs by celltiter assay
Type: functional, cell-based
Details: COLO 205, 96 h
Hi! Could you tag entries with IC50 below 2000 nM as TRUE, and those at or above as FALSE? Much appreciated.

Solved cases (3 shown):
Asked: hey, is IC50 for `O=C(/C=C/c1ccc2c(c1)nc(COCc1ccccc1)n2CCCO)NO` lower than 2000 nM or not?
Given back: FALSE

Asked: Determine whether this compound shows IC50 lower than 2000 nM (ties excluded): `O=C(/C=C/c1ccc2c(c1)nc(CCc1ccccc1)n2CCCO)NO`
Given back: FALSE

Asked: Find out if reported IC50 for `COc1cc(Cn2c(CCc3ccccc3)nc3cc(CCC(=O)NO)ccc32)cc(OC)c1OC` is less than 2000 nM
Given back: FALSE

Attention now shifts to the item below.
Asked: API: query returns whether the compound falls strictly under 2000 nM in IC50. Query: `O=C(/C=C/c1ccc2c(c1)nc(CCc1ccccc1)n2Cc1ccccc1)NO`
Given back: TRUE

* * *

Target: Histone deacetylase 1 (Homo sapiens)
pIC50: −log10 of the molar value.
Label scheme for pIC50: lower than 7 is no (0), 7 and above is yes (1).

Check out these entries, answers already filled in.
Asked: State whether the measured pIC50 reaches 7, counting equality as reaching it, for `O=C(/C=C/c1ccc2c(c1)nc(CCc1ccccc1)n2CCN1CCCCC1)NO`
Given back: yes (1)

Asked: Entry `CCN(CC)CCn1c(CCc2ccccc2)nc2cc(/C=C/C(=O)NO)ccc21` : is its pIC50 no less than 7?
Given back: yes (1)

Asked: Has `O=C(/C=C/c1ccc2c(c1)nc(CCc1ccccc1)n2Cc1ccccn1)NO` a recorded pIC50 greater than or equal to 7?
Given back: no (0)

Asked: // inclusive: pIC50 at least 7? input: `O=C(/C=C/c1ccc2nc(CCc3ccccc3)[nH]c2c1)NO`
Given back: no (0)

Others:
Asked: Hi team, for `O=C(/C=C/c1ccc2c(c1)nc(CCc1ccccc1)n2CCCN1CCCC1)NO` , is the recorded pIC50 at or above 7?
Given back: no (0)

* * *

Tested on: COLO 205
Assay: Antiproliferative activity against human COLO205 cells after 96 hrs by celltiter assay
Assay type: functional, cell-based
Conditions: COLO 205, 96 h
property_label: IC50 (nM)
Quick reminder: number only, in nM, skip the unit.

Asked: // lookup IC50 for `Nc1ccccc1NC(=O)/C=C/c1ccc2c(c1)nc(CCc1ccccc1)n2Cc1ccccn1`
Given back: 5100

Asked: Quick one: IC50 for `O=C(/C=C/c1ccc2c(c1)nc(CCc1ccccc1)n2CCN1CCCC1)NO` ?
Given back: 140

--- query ---
Asked: Give the measured IC50 of `O=C(/C=C/c1ccc2c(c1)nc(CCc1ccccc1)n2CCN1CCCCC1)NO` .
Given back: 90
